SYSTEM NAME: the molecule itself
ASSAY PROCEDURE: SEC; HiLoad 26/600 Superdex 200 pg; 50 mM Tris-HCl, 10 mM NaCl, pH 8.0; self-association of the purified construct
PROPERTY LABEL: binding result

DISC1 598-854 C682S/C684S/C698S/C762S/C782S/C844S (domain or fragment, human, UniProt Q9NRI5-1 598-854, looked up, DISC1, human, residues 598-854; source: E. coli BL21 (DE3), purified (Ni-NTA, SEC)) GNHFFTAKDLTEEIRSLTSEREGLEGLLSKLLVLSSRNVKKLGSVKEDYNRLRREVEHQETAYETSVKENTMKYMETLKNKLCSSKSPLLGKVWEADLEASRLLIQSLQLQEARGSLSVEDERQMDDLEGAAPPIPPRLHSEDKRKTPLKVLEEFKTHLIPSLHSAGGEQKEESYILSAELGEKSEDIGKKLLYLEDQLHTAIHSHDEDLIQSLRRELQMVKETLQAMILQLQPAKEAGEREAAASSMTAGVHEAQA ... binds
DISC1 598-854 C684S/C698S/C762S/C782S/C844S (domain or fragment, human, UniProt Q9NRI5-1 598-854, looked up, DISC1, human, residues 598-854; source: E. coli BL21 (DE3), purified (Ni-NTA, SEC)) GNHFFTAKDLTEEIRSLTSEREGLEGLLSKLLVLSSRNVKKLGSVKEDYNRLRREVEHQETAYETSVKENTMKYMETLKNKLCSCKSPLLGKVWEADLEASRLLIQSLQLQEARGSLSVEDERQMDDLEGAAPPIPPRLHSEDKRKTPLKVLEEFKTHLIPSLHSAGGEQKEESYILSAELGEKSEDIGKKLLYLEDQLHTAIHSHDEDLIQSLRRELQMVKETLQAMILQLQPAKEAGEREAAASSMTAGVHEAQA ... binds
DISC1 598-854 (C698S/C762S/C782S/C844S) (domain or fragment, human, UniProt Q9NRI5-1 598-854, looked up, DISC1, human, residues 598-854; also called WT*; pseudo-WT variant; source: E. coli BL21 (DE3), purified (Ni-NTA, SEC)) GNHFFTAKDLTEEIRSLTSEREGLEGLLSKLLVLSSRNVKKLGSVKEDYNRLRREVEHQETAYETSVKENTMKYMETLKNKLCSCKCPLLGKVWEADLEASRLLIQSLQLQEARGSLSVEDERQMDDLEGAAPPIPPRLHSEDKRKTPLKVLEEFKTHLIPSLHSAGGEQKEESYILSAELGEKSEDIGKKLLYLEDQLHTAIHSHDEDLIQSLRRELQMVKETLQAMILQLQPAKEAGEREAAASSMTAGVHEAQA ... binds

FYI, the data here is from paper PMC10773898.
